Test Description: Quantitative High-Throughput drug screen in 47 multiple myeloma cell lines against the NCATS MIPE library collection: JIM1_ECACC cell viability assay (AID 1918964)
Condition Set: JIM1 myeloma viability, CellTiter-Glo ATP luminescence, 48 h; series mostly up to 45.8 µM
Source text: PI: Beverly A. Mock Ph.D. Laboratory of Cancer Biology and Genetics, Center for Cancer Research, National Cancer Institute, National Institute of Health, Bethesda, Maryland […] 5; Detector; 425V; Luminescence; Viewlux PerkinElmer. […] 1. […] Briefly, the corresponding myeloma cell lines were screened in 1,536-well plates with 500 cells, 5-uL per well for inhibition of cell viability (assessed by measuring ATP levels with CellTiterGlo). […]
Inconclusive results are not listed. Calls of active or inactive are those of the source. Calls come from the whole dose curve; as a rule, active = well fitted cell-killing curve with a large enough effect; inconclusive = small, poorly fitted or top-dose-only effect, or effect the other way; inactive = no such curve, though single readings can be large or run the other way.
Pick one and only one: active, inactive

Would you please look over these solved cases?
CCC(C(=O)O)C1CCC(C)C(C(C)C(O)C(C)C(=O)C(CC)C2OC3(C=CC(O)[C@@]4(CC[C@](C)(C5CC[C@@](O)(CC)C(C)O5)O4)O3)C(C)CC2C)O1 (stereo partly drawn) ... active
CCCCCN=C(N)NN=Cc1c[nH]c2ccc(OC)cc12 ... active
O=[N+]([O-])c1cn2c(n1)OC[C@@H](OCc1ccc(OC(F)(F)F)cc1)C2 ... inactive
C[C@H]1[C@@H](OC(=O)CCC(=O)O)O[C@@H]2O[C@@]3(C)CC[C@@H]4[C@H](C)CC[C@@H]1[C@@]24OO3 ... active
CCCCCCCCCCCC(CC1OC(=O)C1CCCCCC)OC(=O)C(CC(C)C)NC=O (stereo not drawn) ... inactive
COc1ccc(C(C)=O)c(O)c1 ... inactive
CC(=O)ON=C1C(c2c(O)[nH]c3cc(Br)ccc23)=Nc2ccccc21 ... active
O=C1NC(=O)[C@@H](c2cn3c4c(cccc24)CCC3)[C@H]1c1c[nH]c2ccccc12 ... active

// return assay outcome for CCN(CC)Cc1ccc2cc(COC(=O)Nc3ccc(C(=O)NO)cc3)ccc2c1
active

// return assay outcome for CCOC(=O)[C@H](CCc1ccccc1)N[C@@H](C)C(=O)N1[C@@H](C(=O)O)C[C@H]2CCC[C@@H]21
active

// return assay outcome for Cn1cc(-c2cnn3c(N)c(Br)c([C@H]4CCCNC4)nc23)cn1
active

// return assay outcome for Cc1cnc(NC(=O)Nc2cc(Br)c(C)cc2OC[C@@H]2CNCCO2)cn1
active

// return assay outcome for C[C@@H]1CC[C@@]2(OC1)OC1CC3C4CC=C5CC(O)CCC5(C)C4CCC3(C)C1[C@@H]2C (stereo partly drawn)
inactive

// return assay outcome for Cc1cnn(C)c1C(=O)Nc1cc(Nc2ccc3c(C=Cc4ccccn4)n[nH]c3c2)ccc1F
active

// return assay outcome for O=C(C=Cc1ccc(CN(CCO)CCc2c[nH]c3ccccc23)cc1)NO
active

// return assay outcome for Cn1cc(CNCC2CCN(c3ncc(C(=O)NO)cn3)CC2)c2ccccc21
active

// return assay outcome for COC1=C2C[C@@H](C)C[C@H](OC)[C@@H](O)[C@@H](C)C=C(C)[C@H](OC(N)=O)[C@@H](OC)C=CC=C(C)C(=O)NC(=CC1=O)C2=O
active

###

Tested on: CP266
Test Description: qHTS profiling for inhibitors of Plasmodium falciparum proliferation (AID 504749); note: nearly all actives have a fitted effect of over 60% in size
Condition Set: P. falciparum in erythrocytes, SYBR Green DNA, 72 h; series mostly up to 28.7 µM
Inconclusive results are not listed. Active and inactive are the calls of the source. Calls follow the shape of the dose curve; as a rule, active = well fitted inhibition curve with a large enough effect; inconclusive = small, poorly fitted or top-dose-only effect; inactive = flat fitted curve, though single readings scatter.
Pick one and only one: yes = active, no = inactive

COc1cccc2c1C(=O)c1c(O)c3c(c(O)c1C2=O)C[C@@](O)(C(=O)CO)C[C@@H]3O[C@H]1C[C@H](N)[C@H](OC2CCCCO2)[C@H](C)O1 (stereo partly specified) ... yes
Nc1nc2c(c(=O)[nH]1)N(C=O)[C@H](CNc1ccc(C(=O)N[C@@H](CCC(=O)O)C(=O)O)cc1)CN2 ... no
CCC(C(=O)O)C1CCC(C)C(C(C)C(O)C(C)C(=O)C(CC)C2OC3(C=CC(O)[C@@]4(CC[C@](C)(C5CC[C@@](O)(CC)C(C)O5)O4)O3)C(C)CC2C)O1 (stereo partly specified) ... yes
COc1ccc2c(c1OC)C(=O)OC2[C@H]1c2c(cc3c(c2OC)OCO3)CCN1C (stereo partly specified) ... no
COc1ccc([C@@H]2CNC(=O)C2)cc1OC1CCCC1 ... no

// switching to the query molecule
// return assay outcome for CCCCCCCCCCCC(CC1OC(=O)C1CCCCCC)OC(=O)C(CC(C)C)NC=O (stereo unspecified)
no
